target: rNPFF2 (Rattus norvegicus, UniProt Q9EQD2); construct: expressed in transfected cells; experiment: Functional assay (agonist potency, intrinsic activity) at cloned rat NPFF2 receptor; type: cell-based; details: percent of maximum response elicited by neuropeptide FF; rat NPFF2
Sequence (Q9EQD2 whole entry): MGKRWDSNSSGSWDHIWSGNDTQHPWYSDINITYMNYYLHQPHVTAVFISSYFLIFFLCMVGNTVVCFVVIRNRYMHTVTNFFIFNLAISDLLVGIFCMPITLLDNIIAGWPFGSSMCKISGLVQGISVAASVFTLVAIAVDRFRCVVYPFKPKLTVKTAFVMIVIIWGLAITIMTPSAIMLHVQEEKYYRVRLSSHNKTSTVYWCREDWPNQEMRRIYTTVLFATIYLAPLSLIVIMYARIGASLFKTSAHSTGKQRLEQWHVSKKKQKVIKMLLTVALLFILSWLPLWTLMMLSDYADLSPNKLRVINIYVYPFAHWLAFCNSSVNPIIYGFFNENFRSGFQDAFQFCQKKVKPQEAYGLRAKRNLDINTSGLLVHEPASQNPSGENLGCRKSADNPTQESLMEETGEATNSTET
The label is class 1 for rNPFF2 IA (intrinsic activity) below 50 % NPFF and class 0 for rNPFF2 IA (intrinsic activity) equal to or exceeding 50 % NPFF.

Prompt: is_below(rNPFF2 IA (intrinsic activity), 50 % NPFF) for Cc1nc(NC(=N)N)nc2ccc3ccccc3c12 [Compound 1007] ?
Completion: class 0

Prompt: Determine if Cc1ccc2c(C)cc(NC(=N)N)nc2c1 [Compound 4006, N-(4,7-dimethyl-2-quinolinyl)guanidine] shows rNPFF2 IA (intrinsic activity) strictly lower than 50 % NPFF.
Completion: class 1

Prompt: hey, is rNPFF2 IA (intrinsic activity) for Cc1ccc2nc(NC(=N)N)cc(C)c2c1 [Compound 4001, N-(4,6-dimethyl-2-quinolinyl)guanidine] lower than 50 % NPFF or not?
Completion: class 0

Prompt: Item CCCCCc1ccc2nc(NC(=N)N)cc(C)c2c1 [Compound 5002] : rNPFF2 IA (intrinsic activity) beneath 50 % NPFF, strictly?
Completion: class 0

Prompt: Strictly below 50 % NPFF: is that where rNPFF2 IA (intrinsic activity) of Cc1nc(NC(=N)N)nc2cc(F)c(F)cc12 [Compound 1019] sits?
Completion: class 1

Prompt: hey, is rNPFF2 IA (intrinsic activity) for CCCCCCCc1ccc2nc(NC(=N)N)nc(C)c2c1 [Compound 2006] lower than 50 % NPFF or not?
Completion: class 1

Prompt: Determine if Cc1nc(NC(=N)N)nc2cc(OC(C)C)ccc12 [Compound 1025] shows rNPFF2 IA (intrinsic activity) strictly lower than 50 % NPFF.
Completion: class 1

Prompt: Confirm or reject: rNPFF2 IA (intrinsic activity) of Cc1nc(NC(=N)N)nc2ccccc12 [Compound 1001, N-(4-methyl-2-quinazolinyl)guanidine] lies strictly below 50 % NPFF
Completion: class 1

Prompt: Regarding Cc1nc(NC(=N)N)nc2cc(-c3ccccc3)ccc12 [Compound 1023] , kindly confirm whether its rNPFF2 IA (intrinsic activity) is beneath 50 % NPFF.
Completion: class 1

Prompt: Consider Cc1nc(NC(=N)N)nc2ccc(C(C)(C)C)cc12 [Compound 1004] . Does its rNPFF2 IA (intrinsic activity) lie strictly below 50 % NPFF?
Completion: class 0

Prompt: Strictly below 50 % NPFF: is that where rNPFF2 IA (intrinsic activity) of CCCCCc1ccc2nc(NC(=N)N)nc(C)c2c1 [Compound 2001] sits?
Completion: class 0

Prompt: Consider the compound Cc1nc(NC(=N)N)nc2cc(C(C)C)ccc12 [Compound 1021] . Is its rNPFF2 IA (intrinsic activity) strictly less than 50 % NPFF?
Completion: class 0

Prompt: I wonder whether Cc1nc(NC(=N)N)nc2cc(C(C)(C)C)ccc12 [Compound 1022] has rNPFF2 IA (intrinsic activity) below 50 % NPFF. Can you tell?
Completion: class 0

Prompt: Answer whether the compound Cc1nc(NC(=N)N)nc2ccc(C3CCCCC3)cc12 [Compound 1029] has rNPFF2 IA (intrinsic activity) strictly less than 50 % NPFF
Completion: class 1

Prompt: Please state whether rNPFF2 IA (intrinsic activity) is below 50 % NPFF for Cc1cc(NC(=N)N)nc2ccc(-c3ccccc3)cc12 [Compound 4003]
Completion: class 1
